Every entry's value here was drawn from the supplement of paper PMC10567573.

Exercise: for every item that follows, state its recorded protein stability index.
B1: WDR41 (parent)
chain: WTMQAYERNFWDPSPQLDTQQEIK

# Variants of: B1
# experimentalProtocol: protein stability index of a GFP-peptide fusion (GPS, HEK-293T) (PSI 1-6); higher = more stable;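 also: lentivirally expressed fusions sorted by FACS into six bins by GFP to DsRed ratio, PSI derived from sequencing read proportions per bin multiplied by bin number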
# testParameters: c terminus: a fixed tail appended
One number for each entry.

Observe how each entry below is paired with its result.
1) Q21N
2.71
2) Y6I
2.67
3) Q20T
2.04
4) A5K
2.96
5) K24M
1.91

State the recorded protein stability index for every item in the following list.
1. A5Q
2. D12K
3. E7F
4. S14K
5. W1C
6. L17C

[2.85, 2.06, 2.88, 2.09, 2.3, 2.58]
